This collection of values is drawn from ChEMBL document CHEMBL3351463.

MEASURED TARGET: Histone deacetylase 3 (Homo sapiens, UniProt O15379)
Sequence (O15379 whole entry): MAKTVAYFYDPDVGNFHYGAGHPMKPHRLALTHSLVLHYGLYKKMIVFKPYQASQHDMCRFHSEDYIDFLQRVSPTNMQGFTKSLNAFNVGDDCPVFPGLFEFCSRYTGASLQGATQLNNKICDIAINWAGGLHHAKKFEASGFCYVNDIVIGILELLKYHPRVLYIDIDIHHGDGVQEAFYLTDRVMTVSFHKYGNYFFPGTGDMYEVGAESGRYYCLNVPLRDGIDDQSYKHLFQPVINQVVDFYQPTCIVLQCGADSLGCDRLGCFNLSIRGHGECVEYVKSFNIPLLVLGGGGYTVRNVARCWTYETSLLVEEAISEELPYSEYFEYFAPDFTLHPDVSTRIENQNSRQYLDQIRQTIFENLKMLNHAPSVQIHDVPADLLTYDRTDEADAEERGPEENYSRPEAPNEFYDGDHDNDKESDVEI
EXPERIMENT SUMMARY: Inhibition of human recombinant HDAC3 using [Ac-Leu-Gly-Lys(Ac)-AMC substrate incubated for 15 to 30 mins
ENDPOINT NAME: Ki (nM)

SMI	Ki [nM]
CC(C)[C@H]1NC(=O)C[C@@H](/C=C/CCCC(=O)O)NC(=O)[C@@H](Cc2ccc(O)cc2)NC(=O)[C@@H](C)NC1=O	500
CC(C)[C@H]1NC(=O)C[C@@H](CCCCCC(=O)O)NC(=O)[C@@H](Cc2c[nH]c3ccccc23)NC(=O)[C@@H](C)NC1=O	500
CC(C)[C@H]1NC(=O)C[C@@H](C/C=C\CCC(=O)O)NC(=O)[C@@H](Cc2c[nH]c3ccccc23)NC(=O)[C@@H](C)NC1=O	500
